# Test system: SNB-19 CNS
# TEST: NCI-60 one-dose screen, 48 h
# EXPERIMENTAL CONTEXT: 10 µM unless noted
The panel holds about 83,000 compounds, 20% with a hit somewhere; the sample as a whole holds those more often. The source made the active and inactive calls. The calls were made as follows: active = growth percent below 10; inactive = the rest.
Entry note: the call must match one of class 1 for active, class 0 for inactive

>>> class_label("CC1=C(C(=O)OC(C)C)C(c2ccc(O)cc2)NC(=O)N1 (stereo not given)")
"class 0"
>>> class_label("COc1ccc(NC(=O)Cn2c(/C=C/c3cccc(OC)c3)nc3ccccc3c2=O)cc1")
"class 0"
>>> class_label("CN1C(=O)C2(C(C#N)=C(c3ccc(Cl)cc3)Nc3c2c(-c2ccccc2)nn3-c2ccccc2)c2ccccc21 (stereo not given)")
"class 0"
>>> class_label("O=C(COc1ccc(/C=C2/C(=O)Nc3ccc(Cl)cc32)cc1)Nc1ccc(Br)cc1")
"class 1"

Attention now turns to another entry.
Would you mind telling me which call this test gave `CC(C)CN1C(=O)/C(=C\C(=O)c2cc3ccccc3oc2=O)c2ccccc21` ?
class 0

Hey, just so you know, these numbers are from PubChem BioAssay (NCI).
